Answer each item with its documented interaction score.
Target: T1, 4H477-bH
T1 chain: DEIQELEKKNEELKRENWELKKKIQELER
Experiment: two-hybrid library CCNG1;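 note: natural log of median RNA to DNA barcode read ratio; higher means stronger binding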
Answer using only a numeral; do not append any unit.

Q) Input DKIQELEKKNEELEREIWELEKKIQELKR [4H2438-bH] , output reported interaction score.
A) 0.358

Q) Input DKIQELKKKIEELKRKIWELEKENQELER [4H2915-bH] , output reported interaction score.
A) -2.15

Q) Input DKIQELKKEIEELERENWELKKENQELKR [4H2588-bH] , output reported interaction score.
A) -0.292

Q) Input DKIQELKKKIEELERENWELEKKNQELER [4H2839-bH] , output reported interaction score.
A) -0.629

Q) Input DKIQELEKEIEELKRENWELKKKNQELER [4H2143-bH] , output reported interaction score.
A) -0.0383

Q) Input DEIQELEKKNEELKRENWELKKKIQELER [4H477-bH] , output reported interaction score.
A) 0.526

Q) Input DKIQELKKENEELERENWELKKKIQELER [4H2717-bH] , output reported interaction score.
A) 1.38

Q) Input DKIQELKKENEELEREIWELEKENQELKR [4H2692-bH] , output reported interaction score.
A) -0.436

Q) Input DKNQELEKENEELKREIWELKKKIQELER [4H3277-bH] , output reported interaction score.
A) 0.256

Q) Input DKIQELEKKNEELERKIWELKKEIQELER [4H2473-bH] , output reported interaction score.
A) -1.42

Q) Input DEIQELEKEIEELERKIWELEKKNQELKR [4H40-bH] , output reported interaction score.
A) -0.00296

Q) Input DEIQELEKKIEELERKNWELKKKNQELER [4H319-bH] , output reported interaction score.
A) -0.71

Q) Input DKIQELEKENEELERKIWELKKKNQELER [4H2223-bH] , output reported interaction score.
A) -0.907

Q) Input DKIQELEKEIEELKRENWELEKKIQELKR [4H2134-bH] , output reported interaction score.
A) 1.08
